System: T1, EsCas13d, nuclease-dead (Eubacterium siraeum, UniProt B0MS50, R295A;H300A;R849A;H854A)
T1 sequence: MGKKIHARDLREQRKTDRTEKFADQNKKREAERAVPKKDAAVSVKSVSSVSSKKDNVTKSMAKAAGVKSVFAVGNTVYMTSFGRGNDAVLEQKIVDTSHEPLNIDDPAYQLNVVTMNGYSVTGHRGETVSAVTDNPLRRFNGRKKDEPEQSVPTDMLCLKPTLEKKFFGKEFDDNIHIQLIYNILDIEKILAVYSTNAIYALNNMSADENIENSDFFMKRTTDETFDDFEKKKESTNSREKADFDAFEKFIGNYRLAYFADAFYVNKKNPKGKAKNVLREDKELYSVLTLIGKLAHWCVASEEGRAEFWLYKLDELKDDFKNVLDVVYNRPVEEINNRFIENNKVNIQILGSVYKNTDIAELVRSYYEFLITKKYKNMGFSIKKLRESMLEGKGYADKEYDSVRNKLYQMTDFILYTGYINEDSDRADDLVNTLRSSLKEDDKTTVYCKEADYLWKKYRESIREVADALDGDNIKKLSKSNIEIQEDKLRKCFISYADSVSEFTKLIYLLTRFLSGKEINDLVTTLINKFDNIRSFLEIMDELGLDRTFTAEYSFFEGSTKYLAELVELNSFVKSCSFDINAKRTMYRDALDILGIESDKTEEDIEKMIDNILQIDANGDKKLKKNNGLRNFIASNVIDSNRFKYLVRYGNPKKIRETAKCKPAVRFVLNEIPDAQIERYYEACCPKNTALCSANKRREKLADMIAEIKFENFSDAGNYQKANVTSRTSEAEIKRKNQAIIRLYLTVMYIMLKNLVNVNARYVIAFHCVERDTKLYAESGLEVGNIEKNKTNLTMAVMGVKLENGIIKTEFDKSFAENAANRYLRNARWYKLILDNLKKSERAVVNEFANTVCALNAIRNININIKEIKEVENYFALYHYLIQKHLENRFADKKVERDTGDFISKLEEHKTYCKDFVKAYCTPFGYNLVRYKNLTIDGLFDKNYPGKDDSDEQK
Experiment summary: crRNA (strand 1, pre-loaded); Mg2+; 40 mM Tris-HCl pH 7.5, 150 mM NaCl, 6 mM MgCl2, 1 mM DTT, 0.1% Tween-20, 0.2 mg/ml BSA; 25 C; 10 min per concentration, then washed
Assay setup: tags: His6-TwinStrep-SUMO cleaved; N-terminal SNAP kept (SNAP-Surface 488); label: 3' end held by stalled T7 RNA polymerase
Endpoint: pKd
A value of pKd is the negative decimal logarithm of a concentration given in moles per litre.

Prompt: Check the records and state pKd for target 3 U2G,A9G (mixed) RNA 1: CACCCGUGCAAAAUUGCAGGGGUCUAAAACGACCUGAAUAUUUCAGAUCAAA RNA 2: GGGAAUGGAUCCACAUCUACGAAUUCGUUUUUGAUCUGAAAUGUUCAGGGCUGCAGAUCGGAAGAGCACACGU
Response: 7.44
